Source of measurements: paper PMC11950244

Exercise: state measured Bottom for each of the compounds provided.
# tested.system: LSD1 (Homo sapiens)
# assay.summary: LSD1 enzymatic assay;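 as to Bottom: percent inhibition of LSD1 activity from the fitted dose-response curve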
# Assay type: biochemical
# run.conditions: concentration-response curve fit parameter
A bare number is all that is needed in reply.

Form field Bottom, entry Cc1ccc(-c2noc(-c3cccn(CC(=O)Nc4ccccc4Br)c3=O)n2)cc1 : 5.79

Lab note: measured Bottom of Cc1ccc(-c2noc(-c3ccc(=O)n(CC(=O)NCc4ccccc4)c3)n2)cc1 was −1.64

So for CCN(CC)c1ccc(/C=C2/C(=O)NC(=O)N(c3ccc(C(F)(F)F)cc3)C2=O)c(O)c1 , the logged Bottom turned out to be 8.10

Kindly note the recorded Bottom for Cc1ccc(-c2noc(-c3ccc(=O)n(CC(=O)Nc4ccccc4Br)c3)n2)cc1 , which is −11.46

// recorded Bottom for Cc1ccc(-c2noc(-c3ccc(=O)n(CC(=O)Nc4ccccc4C(F)(F)F)c3)n2)cc1 : 2.43

###

# tested.system: triple-mutant EGFR (L858R/T790M/C797S) (Homo sapiens, UniProt P00533, C797S/L858R/T790M)
# Sequence (P00533 25-1210 T790M/C797S/L858R): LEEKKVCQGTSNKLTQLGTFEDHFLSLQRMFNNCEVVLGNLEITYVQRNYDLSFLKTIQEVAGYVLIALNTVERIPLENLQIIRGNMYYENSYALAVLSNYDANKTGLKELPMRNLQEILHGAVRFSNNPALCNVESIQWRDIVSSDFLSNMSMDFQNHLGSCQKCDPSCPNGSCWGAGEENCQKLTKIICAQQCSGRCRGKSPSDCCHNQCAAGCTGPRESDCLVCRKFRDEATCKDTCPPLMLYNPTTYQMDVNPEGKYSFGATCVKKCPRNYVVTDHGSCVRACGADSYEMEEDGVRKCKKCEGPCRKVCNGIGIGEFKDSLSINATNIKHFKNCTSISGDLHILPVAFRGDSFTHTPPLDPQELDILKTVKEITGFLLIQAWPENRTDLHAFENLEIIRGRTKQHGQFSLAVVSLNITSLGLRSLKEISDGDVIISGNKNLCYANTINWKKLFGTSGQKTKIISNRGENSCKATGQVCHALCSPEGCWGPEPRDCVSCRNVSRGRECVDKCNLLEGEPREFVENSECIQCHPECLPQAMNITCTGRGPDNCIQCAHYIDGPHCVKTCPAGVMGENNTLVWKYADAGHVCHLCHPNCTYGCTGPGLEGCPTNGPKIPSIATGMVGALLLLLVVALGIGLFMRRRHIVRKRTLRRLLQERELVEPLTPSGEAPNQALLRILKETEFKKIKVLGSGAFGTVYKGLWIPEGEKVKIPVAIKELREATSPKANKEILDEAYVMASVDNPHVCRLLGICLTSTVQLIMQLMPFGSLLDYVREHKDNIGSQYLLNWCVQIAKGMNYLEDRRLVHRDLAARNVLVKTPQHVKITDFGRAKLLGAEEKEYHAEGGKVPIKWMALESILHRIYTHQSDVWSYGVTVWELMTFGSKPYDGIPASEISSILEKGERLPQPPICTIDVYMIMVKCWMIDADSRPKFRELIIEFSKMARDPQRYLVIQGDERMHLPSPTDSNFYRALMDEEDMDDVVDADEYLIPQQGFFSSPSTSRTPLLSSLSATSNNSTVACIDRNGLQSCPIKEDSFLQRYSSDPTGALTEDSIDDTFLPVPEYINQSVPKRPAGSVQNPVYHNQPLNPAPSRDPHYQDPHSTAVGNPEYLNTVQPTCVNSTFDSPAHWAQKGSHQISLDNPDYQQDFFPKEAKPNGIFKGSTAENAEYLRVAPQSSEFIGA
# assay.summary: EGFR kinase assay (HTRF), triple mutant
# Assay type: biochemical
# Procedure: The biological experiments of inhibiting the activity of EGFR by test compounds were also performed by Pharmaron (Beijing). To conduct the kinase assay, the following steps were followed: % Inhibition is calculated as follow: %Inhibition=1−SINGALcmpd−SINGALave−pc/SINGALave−vc−SINGALave−pc×100 SINGALcmpd = singal for compound being tested SINGALave_pc = singal for positive controls SINGALave_vc = singal for vehicle controls
measurement.label: pIC50
Quick note: pIC50 values are minus log10 of concentrations in mol/L.

get_value(item= CCN(CC)c1ccc(/C=C2/C(=O)NC(=O)N(c3ccc(Cl)cc3)C2=O)c(O)c1 , readout=pIC50) returns 5.30

###

# tested.system: LSD1 (Homo sapiens)
# assay.summary: LSD1 enzymatic assay
# Assay type: biochemical
# run.conditions: concentration-response curve fit parameter
measurement.label: Hillslope
Enter the number alone.

Let me check: Cc1ccc(-c2noc(-c3ccc(=O)n(CC(=O)NCc4ccccc4)c3)n2)cc1 , system LSD1 (Homo sapiens), measured Hillslope is 2.53

Entry CCN(CC)c1ccc(/C=C2/C(=O)NC(=O)N(c3ccc(Cl)cc3)C2=O)c(O)c1 ; assay system LSD1 (Homo sapiens); Hillslope recorded at 1.26

The reported Hillslope value, LSD1 (Homo sapiens), for Cc1ccc(-c2noc(-c3cccn(CC(=O)Nc4ccccc4Br)c3=O)n2)cc1 reads 4.05

Bench note, LSD1 (Homo sapiens): Cc1ccc(-c2noc(-c3ccc(=O)n(CC(=O)Nc4ccccc4Br)c3)n2)cc1 , Hillslope reads 1.86

Item: COc1ccccc1NC(=O)Cn1cc(-c2nc(-c3ccc(C)cc3)no2)ccc1=O | System: LSD1 (Homo sapiens) | Hillslope: 2.04

###

# tested.system: LSD1 (Homo sapiens, UniProt O60341)
# assay.summary: SPR binding assay (Biacore T200)
measurement.label: Kd
Please format your answer as a value with the unit trailing.

// Kd value for CCN(CC)c1ccc(/C=C2/C(=O)NC(=O)N(c3ccc(Cl)cc3)C2=O)c(O)c1 : 18.2 µM

###

# tested.system: LSD1 (Homo sapiens, UniProt O60341)
# assay.summary: LSD1 enzymatic assay;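 as to Top: percent inhibition of LSD1 activity from the fitted dose-response curve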
# Type: biochemical
# run.conditions: concentration-response curve fit parameter
Response field label takes yes (1) when Top is strictly below 50 and no (0) in all other cases.

Please let me know if Cc1ccc(-c2noc(-c3cccn(CC(=O)Nc4ccccc4Br)c3=O)n2)cc1 shows Top below 50.
no (0)

Quick check: Top of CCCc1noc(-c2ccc(=O)n(CC(=O)Nc3ccccc3Br)c2)n1 under 50?
no (0)

I wonder whether CCN(CC)c1ccc(/C=C2/C(=O)NC(=O)N(c3ccc(C(F)(F)F)cc3)C2=O)c(O)c1 has Top below 50. Can you tell?
yes (1)

Input CCN(CC)c1ccc(/C=C2/C(=O)NC(=O)N(c3ccc(Cl)cc3)C2=O)c(O)c1 ; condition: Top strictly below 50. Does it hold?
no (0)

Lab note: Top threshold 50. Does this compound come in strictly under it? Cc1ccc(-c2noc(-c3ccc(=O)n(CC(=O)Nc4ccccc4Br)c3)n2)cc1
no (0)

Given Cc1ccc(-c2noc(-c3ccc(=O)n(CC(=O)Nc4ccccc4C(F)(F)F)c3)n2)cc1 , is recorded Top strictly lower than 50?
yes (1)

Lab note: confirm whether the reported Top for this compound is below 50, equality not counting. compound: COc1ccccc1NC(=O)Cn1cc(-c2nc(-c3ccc(C)cc3)no2)ccc1=O
no (0)

Is the reported Top for Cc1noc(-c2ccc(=O)n(CC(=O)Nc3ccccc3Br)c2)n1 strictly below 50?
no (0)

Does the reported Top of the following compound sit strictly below 50? Cc1ccc(-c2noc(-c3ccc(=O)n(CC(=O)NCc4ccccc4)c3)n2)cc1
yes (1)

Top strictly < 50 for this compound? Cc1ccc(-c2noc(-c3ccc(=O)n(CC(=O)Nc4ccc(Br)cc4)c3)n2)cc1
no (0)

###

Answer each item with its documented IC50.
# tested.system: LSD1 (Homo sapiens)
# assay.summary: LSD1 enzymatic assay
# Type: biochemical
# run.conditions: read-out: IC50 (μM) against LSD1
Form entry: value (µM) — number only.

response.value for Cc1ccc(-c2noc(-c3ccc(=O)n(CC(=O)Nc4ccc(Br)cc4)c3)n2)cc1 (field: IC50) = 26.6

Documented IC50 of Cc1noc(-c2ccc(=O)n(CC(=O)Nc3ccccc3Br)c2)n1 : 28.7

Lab book: IC50 of Cc1ccc(-c2noc(-c3ccc(=O)n(CC(=O)NCc4ccccc4)c3)n2)cc1 noted as 28.3

For Cc1ccc(-c2noc(-c3ccc(=O)n(CC(=O)Nc4ccccc4C(F)(F)F)c3)n2)cc1 the compound record lists IC50 as 34.3

###

# tested.system: LSD1 (Homo sapiens, UniProt O60341)
# assay.summary: LSD1 enzymatic assay
# Type: biochemical
measurement.label: pIC50
Remember the convention: pIC50 equals -log10 of concentration in molar.

Entry CCN(CC)c1ccc(/C=C2/C(=O)NC(=O)N(c3ccc(Cl)cc3)C2=O)c(O)c1 , pIC50 reported as 5.20

Input C/C(=N\NC(=O)c1cccc(S(=O)(=O)N2CCN(C)CC2)c1)c1cc(Cl)ccc1O [Seclidemstat, seclidemstat, reference compound] . Output pIC50: 6.64

Given item CCN(CC)c1ccc(/C=C2/C(=O)NC(=O)N(c3ccc(C(F)(F)F)cc3)C2=O)c(O)c1 , the value recorded as its pIC50 is 4.45

###

# tested.system: LSD1 (Homo sapiens)
# assay.summary: SPR binding assay (Biacore T200)
# run.conditions: SPR, 15 °C; read-out: dissociation constant (KD)
measurement.label: pKd
Worth noting: pKd values are minus log10 of concentrations stated in mol/L.

The compound identified as Cc1ccc(-c2noc(-c3ccc(=O)n(CC(=O)Nc4ccccc4Br)c3)n2)cc1 registered its pKd at 4.58

###

# tested.system: LSD1 (Homo sapiens, UniProt O60341)
# assay.summary: LSD1 enzymatic assay
# Format: biochemical
# run.conditions: read-out: IC50 (μM) against LSD1
Answer each item with its documented IC50.

Per the record, Cc1ccc(-c2noc(-c3ccc(=O)n(CC(=O)Nc4ccccc4Br)c3)n2)cc1 has IC50 of 9.26 µM

Notebook: CCCc1noc(-c2ccc(=O)n(CC(=O)Nc3ccccc3Br)c2)n1 , IC50 read as 19.8 µM

Per the records, this compound ( Cc1ccc(-c2noc(-c3cccn(CC(=O)Nc4ccccc4Br)c3=O)n2)cc1 ) has IC50 equal to 29.2 µM

Short answer for Cc1ccc(-c2noc(-c3ccc(=O)n(CC(=O)Nc4cccc(Br)c4)c3)n2)cc1 : IC50 was > 100 µM

// IC50 lookup, compound = CCCCNC(=O)Cn1cc(-c2nc(-c3ccc(C)cc3)no2)ccc1=O , result: > 100 µM

###

# tested.system: triple-mutant EGFR (L858R/T790M/C797S) (Homo sapiens, UniProt P00533, C797S/L858R/T790M)
# assay.summary: EGFR kinase assay (HTRF), triple mutant
# Assay type: biochemical
# run.conditions: read-out: EGFR kinase assay IC50 (μM) L858R/T790M/C797S
Record form. Attribute: IC50. Fill in for each entry.
Respond with the bare value in µM.

Cc1ccc(-c2noc(-c3ccc(=O)n(CC(=O)Nc4ccccc4Br)c3)n2)cc1 yielded IC50 of 28.5

# molecule Cc1noc(-c2ccc(=O)n(CC(=O)Nc3ccccc3Br)c2)n1 ; its IC50 = 59.6

Given item Cc1ccc(-c2noc(-c3ccc(=O)n(CC(=O)NCc4ccccc4)c3)n2)cc1 , the value recorded as its IC50 is 86.7
